Assay: qHTS assay to identify small molecule agonists of the androgen receptor (AR) signaling pathway in the presence of an antagonist - cell viability counter screen (AID 1259379); further: nearly all actives have a fitted effect of over 25% in size; further: potency means the concentration at half of the fitted maximal effect
Conditions: MDA-kb2 viability, CellTiter-Fluor, 16 h; series mostly up to 92.4 µM
Records with an inconclusive call do not appear. Activity calls are given as the source filed them. The call rests on the fitted dose curve; in most records, active means well fitted cell-killing curve with a large enough effect in the repeat runs; inconclusive means weak or mixed curves, or effect the other way; inactive means flat fitted curve, though single readings scatter.
MEASUREMENT LABEL: Potency

Below, 5 molecules whose answers are already recorded.
{"columns": ["MOLECULE", "Potency"],
 "data": [
  ["ClC1=C(Cl)C1(Cl)Cl", "inactive"],
  ["C[C@@H]1C[C@H]2[C@@H]3CCC4=CC(=O)C=C[C@]4(C)[C@@]3(F)[C@@H](O)C[C@]2(C)[C@@]1(O)C(=O)COP(=O)(O)O", "inactive"],
  ["CO[C@@H]1[C@@H](OC)[C@H](C)[C@@](O)(CC(=O)O)O[C@H]1[C@H](C)[C@H]1O[C@@]2(CC[C@@](C)([C@H]3CC[C@@](C)([C@@H]4O[C@@H]([C@H]5O[C@](C)(O)[C@H](C)C[C@@H]5C)C[C@@H]4OC4C[C@H](OC)[C@@H](OC)[C@H](C)O4)O3)O2)C[C@H](O)[C@H]1C (stereo not given in full)", "1.68 µM (active)"],
  ["CCC(=O)OCc1ccc(OC)cc1", "inactive"],
  ["CN(C)CC/C=C1\\c2ccccc2Sc2ccc(Cl)cc21", "29.8 µM (active)"]
]}

**Query** Output Potency of CCC(CO)(CO)CO
**Result** inactive

**Query** Output Potency of O=CNNC=O
**Result** inactive

**Query** Output Potency of CCN(Cc1cccc(S(=O)(=O)O)c1)c1ccc(C(=C2C=CC(=[N+](CC)Cc3cccc(S(=O)(=O)O)c3)C=C2)c2ccccc2S(=O)(=O)[O-])cc1
**Result** 17.3 µM (active)

**Query** Output Potency of Nc1ccc(F)cc1
**Result** inactive

**Query** Output Potency of CCc1ccc(C)cc1
**Result** inactive

====

Target: Thyrotropin receptor (Homo sapiens) (UniProt P16473)
Sequence (P16473 whole entry, looked up): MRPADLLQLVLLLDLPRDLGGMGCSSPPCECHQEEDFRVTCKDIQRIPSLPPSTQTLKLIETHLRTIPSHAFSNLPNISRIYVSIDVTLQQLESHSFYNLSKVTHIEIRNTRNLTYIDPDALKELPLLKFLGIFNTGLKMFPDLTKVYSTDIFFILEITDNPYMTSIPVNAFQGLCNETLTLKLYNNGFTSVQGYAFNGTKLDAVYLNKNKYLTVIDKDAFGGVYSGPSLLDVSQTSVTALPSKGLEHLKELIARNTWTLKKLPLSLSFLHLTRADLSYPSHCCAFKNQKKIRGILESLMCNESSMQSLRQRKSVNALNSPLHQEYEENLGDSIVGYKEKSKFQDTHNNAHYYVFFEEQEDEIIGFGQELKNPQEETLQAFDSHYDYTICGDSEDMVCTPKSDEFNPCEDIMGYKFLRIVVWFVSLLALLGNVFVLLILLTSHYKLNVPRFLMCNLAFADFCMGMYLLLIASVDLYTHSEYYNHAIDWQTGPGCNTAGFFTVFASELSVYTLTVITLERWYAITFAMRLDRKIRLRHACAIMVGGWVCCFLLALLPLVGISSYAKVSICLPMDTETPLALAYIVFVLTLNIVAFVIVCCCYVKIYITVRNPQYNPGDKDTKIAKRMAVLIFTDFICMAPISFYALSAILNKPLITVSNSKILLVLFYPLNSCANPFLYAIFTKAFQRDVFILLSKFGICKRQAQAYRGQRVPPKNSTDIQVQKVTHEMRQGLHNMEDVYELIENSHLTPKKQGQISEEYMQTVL
Test: qHTS assay to identify small molecule agonists of the thyroid stimulating hormone receptor (TSHR) signaling pathway (AID 1224843); further: nearly all actives have a fitted effect of over 45% in size
Settings: TSHR-HEK293 cells, cAMP HTRF, agonist mode, 30 min; series mostly up to 92.4 µM
Results filed as inconclusive are left out. The source made the active and inactive calls. Calls follow the shape of the full dose curve.
MEASUREMENT LABEL: activation

Below, 5 molecules whose answers are already recorded.
{"columns": ["MOLECULE", "VALUE"],
 "data": [
  ["O=C(NS(=O)(=O)/C=C/c1ccccc1)c1ccc(F)cc1Cl", "inactive"],
  ["Cc1c[nH]c2ccccc12", "inactive"],
  ["C=CC(=O)O", "inactive"],
  ["COC(=O)CC(C(C)=O)C(=O)OC (configuration not stated)", "inactive"],
  ["Cc1ccc(Nc2c(F)cccc2Cl)c(CC(=O)O)c1", "inactive"]
]}

**Query** Output activation of O=C(c1ccccc1)c1ccc(O)cc1
**Result** inactive

**Query** Output activation of CC[C@H]1OC(=O)[C@H](C)[C@@H](O[C@H]2C[C@@](C)(OC)[C@@H](O)[C@H](C)O2)[C@H](C)[C@@H](O[C@@H]2O[C@H](C)C[C@H](N(C)C)[C@H]2O)[C@](C)(O)C[C@@H](C)/C(=N\OCOCCOC)[C@H](C)[C@@H](O)[C@]1(C)O
**Result** inactive

**Query** Output activation of CCC(CO)(CO)[N+](=O)[O-]
**Result** inactive

**Query** Output activation of CC(C)C(O)C(C)(C)CO (configuration not stated)
**Result** inactive

**Query** Output activation of COc1cc(C(C)=O)ccc1OCCCN1CCC(c2noc3cc(F)ccc23)CC1
**Result** inactive

**Query** Output activation of CCCCCCC(O)CCCCCCCCCCC(=O)OC (configuration not stated)
**Result** inactive

**Query** Output activation of C[C@H](CS)C(=O)N1CCC[C@H]1C(=O)O
**Result** inactive

====

Assay: qHTS assay to identify small molecule antagonists of the estrogen related receptor (ERR) signaling pathway from Tox21 library - cell viability counter screen (AID 1224834); further: nearly all actives have a fitted effect of over 30% in size
Conditions: ERR reporter cells viability, CellTiter-Fluor, 17.5 h; series mostly up to 92.4 µM
Results filed as inconclusive are left out. Calls of active or inactive are those of the source. Calls follow the shape of the dose curve; as a rule, active = well fitted cell-killing curve with a large enough effect in the repeat runs; inconclusive = weak or mixed curves; inactive = flat fitted curve, though single readings scatter.
Respond only with the outcome that fits, drawn from 1 (active), 0 (inactive)

{"columns": ["COMPOUND", "ANSWER LABEL"],
 "data": [
  ["COc1cc(OC)c2ccc(=O)oc2c1", 0],
  ["CC(C)C1CCC(C(=O)N[C@H](Cc2ccccc2)C(=O)O)CC1 (stereo partly specified)", 0],
  ["CC1CCCO1 (stereo unspecified)", 0],
  ["O=C1OC(=O)c2c(Br)c(Br)c(Br)c(Br)c21", 0],
  ["CC(C)(C)C(O)/C=C/c1ccc2c(c1)OCO2 (stereo unspecified)", 0],
  ["CCC(=O)OCc1ccc(OC)cc1", 0],
  ["CC(C)C(O)C(C)(C)CO (stereo unspecified)", 1],
  ["COc1ccc(CCN(C)CCCN2CCc3cc(OC)c(OC)cc3CC2=O)cc1OC", 0],
  ["O=C(O)c1cccc(Oc2ccccc2)c1", 0],
  ["CCNc1nc(N)nc(Cl)n1", 0]
]}

**Query** Could you please tell me the result logged for CC1CCCC(=O)C1=O (stereo unspecified) in this assay?
**Result** 0

**Query** Could you please tell me the result logged for CC1=C2[C@@H]([C@H](C)CC[C@H]2/C=C(\C)C(=O)O)[C@H](O)C1 in this assay?
**Result** 0

**Query** Could you please tell me the result logged for Cc1ccc(Cl)cc1N in this assay?
**Result** 0

**Query** Could you please tell me the result logged for C=CC(=O)NC(C)C in this assay?
**Result** 0

**Query** Could you please tell me the result logged for O=S(=O)(O)CO in this assay?
**Result** 0

**Query** Could you please tell me the result logged for O=C(O)c1ccc(O)cc1O in this assay?
**Result** 0

**Query** Could you please tell me the result logged for CCC(CO)(CO)[N+](=O)[O-] in this assay?
**Result** 0

**Query** Could you please tell me the result logged for CC1CCC(C(C)CS)CC1S (stereo unspecified) in this assay?
**Result** 0

====

Assay: qHTS assay to identify aromatase inhibitors - cell viability counter screen (AID 743084);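 further: cells stimulated with testosterone during compound exposure; nearly all actives have a fitted effect of over 55% in size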
Details: MCF-7 aro ERE viability, CellTiter-Fluor, 24 h; series mostly up to 70.3 µM
Inconclusive results are not listed. The source made the active and inactive calls. Calls follow the shape of the dose curve; as a rule, active = well fitted cell-killing curve with a large enough effect in the repeat runs; inconclusive = weak or mixed curves, or effect the other way; inactive = no such curve, though single readings can be large or run the other way.
Respond only with the outcome that fits, drawn from true for active, false for inactive

Check out these entries, answers already filled in.
{"columns": ["COMPOUND", "ANSWER LABEL"],
 "data": [
  ["O=C(NC(Cc1cc(=O)[nH]c2ccccc12)C(=O)O)c1ccc(Cl)cc1 (stereo unspecified)", "false"],
  ["Nc1ccc(NC(=O)c2ccc(N)cc2)cc1", "true"],
  ["CC(C)COC(=O)COc1cc(Cl)c(Cl)cc1Cl", "false"],
  ["CC1=CC[C@@]23C[C@@H]1C(C)(C)[C@@H]2CC[C@H]3C", "false"]
]}

**Query** Could you please tell me the result logged for CC(=O)OCC1=C(C(=O)O)N2C(=O)[C@@H](NC(=O)CSc3ccncc3)[C@H]2SC1 in this assay?
**Result** false

**Query** Could you please tell me the result logged for COC(=O)c1sccc1S(N)(=O)=O in this assay?
**Result** false

====

Assay: qHTS assay to identify small molecule antagonists of the estrogen related receptor (ERR) signaling pathway from Tox21 library (AID 1224848); further: nearly all actives have a fitted effect of over 50% in size
Details: ERR reporter cell line, luciferase antagonist mode, 18 h; series mostly up to 92.4 µM
Inconclusive results are not listed. The source made the active and inactive calls. Calls follow the shape of the dose curve; as a rule, active = well fitted inhibition curve with a large enough effect in the repeat runs; inconclusive = weak or mixed curves; inactive = no such curve, though single readings can be large or run the other way.
Respond only with the outcome that fits, drawn from true (1) = active, false (0) = inactive

{"columns": ["COMPOUND", "ANSWER LABEL"],
 "data": [
  ["CC(=O)Oc1cccc(O)c1", "false (0)"],
  ["CN=C(N)NC(=O)Nc1c(C)cccc1C", "false (0)"],
  ["N[C@@H](Cc1cc(I)c(O)c(I)c1)C(=O)O", "false (0)"]
]}

**Query** Could you please tell me the result logged for Nc1c(Cl)cc(Cl)cc1[N+](=O)[O-] in this assay?
**Result** false (0)

**Query** Could you please tell me the result logged for ClC1=C(Cl)C1(Cl)Cl in this assay?
**Result** false (0)

**Query** Could you please tell me the result logged for CC(C)N=C=NC(C)C in this assay?
**Result** false (0)

**Query** Could you please tell me the result logged for C1=CCC2CC=CC2C1 (configuration not stated) in this assay?
**Result** false (0)

**Query** Could you please tell me the result logged for CC(=O)OCCC(C)CC(C)(C)C (configuration not stated) in this assay?
**Result** false (0)

**Query** Could you please tell me the result logged for CCCCCCC(O)CCOC(C)=O (configuration not stated) in this assay?
**Result** false (0)

**Query** Could you please tell me the result logged for CC(=O)OCC1=C(C(=O)O)N2C(=O)[C@@H](NC(=O)CSc3ccncc3)[C@H]2SC1 in this assay?
**Result** false (0)

**Query** Could you please tell me the result logged for CCCCCCCC(=O)Oc1c(Br)cc(C#N)cc1Br in this assay?
**Result** true (1)

**Query** Could you please tell me the result logged for Nc1ccc(NC(=O)c2ccc(N)cc2)cc1 in this assay?
**Result** false (0)

**Query** Could you please tell me the result logged for CCCCCCCCCCCC(=O)OCC(O)CO (configuration not stated) in this assay?
**Result** false (0)

**Query** Could you please tell me the result logged for OCC(CO)n1cnc(-c2ccc(F)cc2)c1-c1ccnc(Oc2ccccc2)n1 in this assay?
**Result** true (1)

**Query** Could you please tell me the result logged for COC(C)(C)OC in this assay?
**Result** false (0)

**Query** Could you please tell me the result logged for CC12CC3CC(C)(C1)CC(N)(C3)C2 in this assay?
**Result** false (0)

**Query** Could you please tell me the result logged for CCN(Cc1cccc(S(=O)(=O)O)c1)c1ccc(C(=C2C=CC(=[N+](CC)Cc3cccc(S(=O)(=O)O)c3)C=C2)c2ccc(O)cc2S(=O)(=O)[O-])cc1 in this assay?
**Result** true (1)

**Query** Could you please tell me the result logged for O=C(NS(=O)(=O)/C=C/c1ccccc1)c1ccc(F)cc1Cl in this assay?
**Result** false (0)

**Query** Could you please tell me the result logged for CC(C)c1ccc(C#N)cc1 in this assay?
**Result** false (0)

**Query** Could you please tell me the result logged for CC(=O)NNC(C)=O in this assay?
**Result** false (0)

**Query** Could you please tell me the result logged for Cc1ccc2c(c1[N+](=O)[O-])C(=O)c1ccccc1C2=O in this assay?
**Result** false (0)

**Query** Could you please tell me the result logged for COC(=O)c1sccc1S(N)(=O)=O in this assay?
**Result** false (0)

**Query** Could you please tell me the result logged for CCN(CC)c1ccc(C(=C2C=CC(=[N+](CC)CC)C=C2)c2ccc(S(=O)(=O)O)cc2S(=O)(=O)[O-])cc1 in this assay?
**Result** true (1)

**Query** Could you please tell me the result logged for O=C1CC[C@@H](C(=O)O)N1 in this assay?
**Result** false (0)

**Query** Could you please tell me the result logged for Oc1ccc2c(c1)Cc1ccccc1-2 in this assay?
**Result** false (0)
